biological target: HLA-A*31:01; test: IEDB peptide-MHC binding, purified MHC/competitive/radioactivity; filed as Kd, often an IC50 or EC50 that approximates it; bounds were set here for any values at or beyond the usual limits of such assays; settings: source organism: Homo sapiens
Value Kind: Kd (nM)

> print(dat)
   item.sequence  value.kind  result.value
1      VVFGILIKR          Kd            12
2      YTKVVHYRK          Kd            15

---

target: HLA-A*03:01; assay: IEDB peptide-MHC binding, purified MHC/competitive/radioactivity; filed as Kd, often an IC50 or EC50 that approximates it; bounds were set here for any values at or beyond the usual limits of such assays; settings: source organism: Hepatitis B virus adr4
Value Kind: pKd
Please report pKd as the negative decimal logarithm of the molar concentration, giving only the number.

> print(dat)
   item.sequence  assayed.target  value.kind  result.value
1      GSTHVSWPK     HLA-A*03:01         pKd          7.32

Which pKd is listed for KVFVLGGCR ?
6.58
